Tested on: KM12 colon
Test details: NCI-60 one-dose screen, 48 h (100 = growth as untreated, 0 = no growth, -100 = all killed)
Conditions: 10 µM unless noted
Compounds without any hit were thinned out: in the full panel of roughly 83,000, 20% have a hit.
Field 'label' (enum: true / false). Set to true when growth is strictly under 90%; else false.

Example entries and their recorded answers appear below.
Compound: COc1cc(OC)c(C(=O)/C=C/c2cccc(OC(C)=O)c2)cc1CC=C(C)C
Label class: true
//
Compound: COc1ccc(/C=N/NC(N)=S)c(OC)n1
Label class: false
//
Compound: COc1cc(CN2CCC(N3CCCC3=O)c3ccccc32)cc(OC)c1OC (stereo unspecified)
Label class: false

Ask | Quick check: growth of `CN1CCCN(CCNc2nccc(-c3c(-c4cccc(O)c4)nc4sccn34)n2)S1(=O)=O` under 90%?
Reply | true

Ask | Quick check: growth of `CCn1c(Cc2ccccc2Nc2c(Cl)cccc2Cl)nnc1SCC(=O)Nc1ccccc1C(F)(F)F` under 90%?
Reply | false

Ask | Quick check: growth of `C=C(C)[C@@H]1CC[C@]2(C(=O)NS(=O)(=O)c3ccccc3)CC[C@]3(C)[C@H](CC[C@@H]4[C@@]5(C)CC[C@H](OC(=O)NS(=O)(=O)c6ccccc6)C(C)(C)[C@@H]5CC[C@]43C)[C@@H]12` under 90%?
Reply | true

Ask | Quick check: growth of CCN(CC)CCCC(C)Nc1c(-c2ccccc2)cnc2cc(Cl)ccc12 (stereo unspecified) under 90%?
Reply | true

Ask | Quick check: growth of `CCCCCCCCCCCCCC1=NC(C)(C)CN1C(C)C` under 90%?
Reply | true

Ask | Quick check: growth of `CCCCCCCCCCCC1=NC(C)(C)CN1C(C)C` under 90%?
Reply | true

Ask | Quick check: growth of `CC(=O)Nc1c(Br)cc2c(c1Br)Cc1cc(Br)ccc1-2` under 90%?
Reply | true

Ask | Quick check: growth of `N/N=C(\C(=N\N)c1ccccc1)c1ccccc1` under 90%?
Reply | false

Ask | Quick check: growth of `NC(N)=N/N=C/c1ccc(Cl)cc1` under 90%?
Reply | true

Ask | Quick check: growth of `CN1C2CCC1/C(=C\c1ccc(Cl)cc1)C(=O)/C2=C/c1ccc(Cl)cc1` under 90%?
Reply | true

Ask | Quick check: growth of CCN1C(=O)N(CC)C2C1NC(=O)N2/N=C/C=C/c1ccccc1 (stereo unspecified) under 90%?
Reply | true

Ask | Quick check: growth of CC(=O)OC[C@H]1O[C@@H](n2c(=O)cc(N)[nH]c2=O)C(OC(C)=O)[C@@H]1OC(C)=O (stereo partly specified) under 90%?
Reply | false

Ask | Quick check: growth of CO[C@H](C(=O)[C@@H](O)[C@@H](C)O)[C@@H]1Cc2cc3cc(O[C@H]4C[C@@H](O[C@H]5C[C@@H](O)[C@H](O)C(C)O5)[C@H](O)C(C)O4)c(C)c(O)c3c(O)c2C(=O)[C@H]1O[C@H]1C[C@@H](O[C@H]2C[C@@H](O[C@H]3C[C@](C)(O)C(=O)C(C)O3)[C@@H](O)C(C)O2)[C@H](O)C(C)O1 (stereo partly specified) under 90%?
Reply | true

Ask | Quick check: growth of C=CCOC(=O)C1=C(C)NC2=C(C(=O)CC(C)(C)C2)C1c1ccc(OC)cc1 (stereo unspecified) under 90%?
Reply | false

Ask | Quick check: growth of `Cc1ccc(C(=O)CC(=O)C(F)(F)C(F)(F)C(F)(F)F)s1` under 90%?
Reply | false

Ask | Quick check: growth of `Nc1c(C(=O)Nc2ccccc2)sc2nc3c(cc12)C(=O)CCC3` under 90%?
Reply | true

Ask | Quick check: growth of CC(=O)N1N=C(C2C(=O)N(C)C(=O)N(C)C2=O)CC1c1ccccc1C(=O)O (stereo unspecified) under 90%?
Reply | false

Ask | Quick check: growth of `O=[N+]([O-])c1ccc(SSc2ccc([N+](=O)[O-])cc2Cl)c(Cl)c1` under 90%?
Reply | false

Ask | Quick check: growth of `O=C(Nc1ccc(Cl)cc1)c1cc(-c2ccc(Cl)cc2)c2sc(=O)[nH]c2n1` under 90%?
Reply | true
